assay: qHTS for differential inhibitors of proliferation of Plasmodium falciparum line W2 (AID 1883); conditions: Plasmodium falciparum W2 proliferation inhibition; series mostly up to 28.7 µM;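 note: parasites grown with compound for 72 h before lysis and staining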
Inconclusive results are not listed. The source made the active and inactive calls. Calls come from the whole dose curve; as a rule, active = well fitted curve in the direction sought with a large enough effect; inconclusive = small, poorly fitted or top-dose-only effect, or another doubt; inactive = no such curve, though single readings can be large or run the other way.
// one of active, inactive, no free text

Reference set (5 entries):
CN1CCCC1CCOC(C)(c1ccccc1)c1ccc(Cl)cc1 (centres undefined) = active
O=C1Cc2c([nH]c3ccc(Br)cc23)-c2ccccc2N1 = active
COC(=O)C(N)Cc1ccc(Cl)cc1 (centres undefined) = inactive
O=C(O)c1ccccc1Nc1ccccc1 = inactive
Cc1nc(N=Nc2cc(S(=O)(=O)O)c3cc([N+](=O)[O-])cc(S(=O)(=O)O)c3c2)c(COP(=O)(O)O)c(C=O)c1O = inactive

Fill in: this test's call for CCOC(=O)C12CC1/C(=N/O)c1ccccc1O2 (centres undefined) is ___ inactive

Now the same for Cc1cccc(C2CN(C)CCc3c2cc(O)c(O)c3Cl)c1 (centres undefined) active

Entry to check: CC1CCN=C(N)S1 (centres undefined) active

What do you get for `CN(C)C(=O)/N=N/C(=O)N(C)C` ? inactive

Param item: `NC(N)=[N+]1CCc2ccccc2C1` inactive

Try this compound too: `NCCCCN` inactive

// next record `c1ccc(CN2CCC3(CCCc4ccccc43)CC2)cc1` active

// repeat for `NS(=O)(=O)c1cccc2c1c([N+](=O)[O-])cc1nc(O)c(O)nc12` and report active

Could you do the same for CN(C)CCC(c1ccc(Br)cc1)c1ccccn1 (centres undefined) , please? active

Please do the same for Cn1cc(C(F)(F)F)nc1-c1ccc(OCC(O)CNCCOc2ccc(O)c(C(N)=O)c2)cc1 (centres undefined) as well. active

What do you have for `Cc1ccc2c(c1)C(N1CCN(C)CC1)=Nc1cccnc1N2` ? active

Likewise for `CNC(=O)c1cc2c(cn1)[nH]c1ccccc12` ? active

Now try `O=S(=O)(c1cccc2c(Cl)cccc12)N1CCCNCC1` . active

---

target: Thyrotropin-releasing hormone receptor (Homo sapiens); test: qHTS for Small Molecule Agonists and Allosteric Enhancers of Human TRH Receptor: Validation Screen for Agonists (AID 493127); conditions: TRH receptor agonist cell assay; at 2 µM; active compounds read high;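 note: intracellular calcium rise by fluo-8 fluorescence before TRH EC20 addition; 0% is about no effect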
The source made the active and inactive calls.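 Rule for the calls: active = calcium activation more than 3 SD above the typical response in the agonist read; inactive = the rest.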
QUANTITY_NAME: activation

// below: answered compounds
C=CC[C@H](N)C(=O)O = -3.19% (inactive)
COc1cc([C@@H]2c3cc4c(cc3[C@H](O)C3COC(=O)[C@@H]32)OCO4)cc(OC)c1OC (stereo partly drawn) = 0.5% (inactive)
CCCCS(=N)(=O)CC[C@H](N)C(=O)O (stereo partly drawn) = -2.62% (inactive)
CCN1C(=O)C=CC1=O = 1.12% (inactive)
CCCCCCCCCC[Si](C)(C)CCC(=O)NC(Cc1ccc(C)cc1)c1ccccc1 (stereo not drawn) = 0.812% (inactive)

Batch request: activation for each of the following compounds.
1. CN1C2CCC1CC(OC(c1ccccc1)c1ccccc1)C2 (stereo not drawn)
2. CCCCC[C@H](CC(=O)NO)C(=O)N[C@H](C(=O)N1CCC[C@H]1CO)C(C)C
3. CCOC(=O)C12CC1/C(=N/O)c1ccccc1O2 (stereo not drawn)

["1.5% (inactive)", "-2.88% (inactive)", "-3.94% (inactive)"]

Each compound below has a recorded value; state its activation.
1. O=[N+]([O-])c1cccc2cn[nH]c12
2. CC1=C(/C=C/C(C)=C/C=C/C(C)=C\C(=O)O)C(C)(C)CCC1
3. Oc1cc2c(cc1O)C(c1ccccc1)CNCC2 (stereo not drawn)
4. COc1ccc2c(c1)CCC1C2CC[C@@]2(C)C1CC[C@@H]2NCCCCCCN1C(=O)C=CC1=O (stereo partly drawn)
5. CC(C)Cn1c(=O)n(C)c(=O)c2[nH]cnc21

1. 0.5% (inactive)
2. 0.75% (inactive)
3. 0.938% (inactive)
4. 0.25% (inactive)
5. 0.875% (inactive)
